Origin of values: patent US20240425456A1

# target.entity: JAK3 (Homo sapiens)
# Construct: endogenous in cells; host or cells: Jurkat cells
# Sequence (P52333 whole entry): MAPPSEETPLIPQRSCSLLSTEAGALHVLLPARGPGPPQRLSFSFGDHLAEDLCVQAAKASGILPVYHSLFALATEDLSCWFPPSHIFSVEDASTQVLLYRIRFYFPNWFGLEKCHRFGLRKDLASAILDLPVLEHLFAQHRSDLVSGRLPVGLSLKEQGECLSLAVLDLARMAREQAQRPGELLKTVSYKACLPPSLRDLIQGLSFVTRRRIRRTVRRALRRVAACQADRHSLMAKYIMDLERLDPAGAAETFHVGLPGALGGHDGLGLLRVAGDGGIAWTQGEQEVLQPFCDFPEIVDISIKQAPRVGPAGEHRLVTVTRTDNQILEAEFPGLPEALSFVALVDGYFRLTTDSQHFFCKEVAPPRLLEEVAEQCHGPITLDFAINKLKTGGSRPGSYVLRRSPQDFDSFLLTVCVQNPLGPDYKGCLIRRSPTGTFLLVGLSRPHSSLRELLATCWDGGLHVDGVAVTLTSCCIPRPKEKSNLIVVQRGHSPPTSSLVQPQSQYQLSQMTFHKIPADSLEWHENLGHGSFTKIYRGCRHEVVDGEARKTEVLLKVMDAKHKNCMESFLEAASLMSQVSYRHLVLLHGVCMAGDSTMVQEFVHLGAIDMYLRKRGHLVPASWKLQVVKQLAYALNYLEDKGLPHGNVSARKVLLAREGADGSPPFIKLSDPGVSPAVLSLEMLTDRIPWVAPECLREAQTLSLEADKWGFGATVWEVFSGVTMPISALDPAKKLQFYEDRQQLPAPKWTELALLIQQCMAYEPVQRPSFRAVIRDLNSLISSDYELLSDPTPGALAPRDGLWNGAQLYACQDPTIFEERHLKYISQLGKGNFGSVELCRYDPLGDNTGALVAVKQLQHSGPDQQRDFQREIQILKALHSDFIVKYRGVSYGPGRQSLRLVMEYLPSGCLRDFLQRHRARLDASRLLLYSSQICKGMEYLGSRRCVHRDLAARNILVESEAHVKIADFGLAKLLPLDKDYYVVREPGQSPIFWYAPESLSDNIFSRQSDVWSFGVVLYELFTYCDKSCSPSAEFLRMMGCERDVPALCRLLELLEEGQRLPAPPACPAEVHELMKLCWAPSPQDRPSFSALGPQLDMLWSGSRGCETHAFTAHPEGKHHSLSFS
# experimental.details: Degradation-inducing effect on JAK in Jurkat cells (chemiluminescent Western blotting), JAK3
# Assay type: cell-based
# reported.conditions: 1 μmol/L, 6 hours, corrected by GAPDH, DMSO as 100%, read-out: JAK protein ratio of Jurkat cells after treatment of each test compound: JAK3
For each of the molecules below, state its JAK3 protein level relative to DMSO at 1 µM.
Answers are plain numbers, in %.

CNC(=O)c1cnc(Nc2ccc(F)cn2)cc1Nc1cccc(C(=O)NCCCCCCCCCC(=O)N[C@H](C(=O)N2C[C@H](O)C[C@H]2C(=O)NCc2ccc(-c3scnc3C)cc2)C(C)(C)C)c1OC [Comparative Example 1, reference compound]
83.3
CNC(=O)c1cnc(Nc2ccc(C(=O)NCCCCCCCCCC(=O)N[C@H](C(=O)N3C[C@@H](O)C[C@H]3C(=O)NCc3ccc(-c4scnc4C)cc3)C(C)(C)C)cn2)cc1Nc1cccc(C(=O)NC)c1OC [Example 8]
99
CNC(=O)c1cnc(Nc2ccc(C(=O)NCCCCCCCCCC(=O)N[C@H](C(=O)N3C[C@H](O)C[C@H]3C(=O)NCc3ccc(-c4scnc4C)cc3)C(C)(C)C)cn2)cc1Nc1cccc(C(=O)NC)c1OC [Example 5]
112

Entry CNC(=O)c1cnc(Nc2ccc(C(=O)NCCCCCCCCCCCC(=O)N[C@H](C(=O)N3C[C@H](O)C[C@H]3C(=O)NCc3ccc(-c4scnc4C)cc3)C(C)(C)C)cn2)cc1Nc1cccc(C(=O)NC)c1OC [Example 7] has what JAK3 protein level relative to DMSO at 1 µM?
112

* * *

# target.entity: JAK2 (Homo sapiens, UniProt O60674)
# Construct: endogenous in cells; host or cells: Jurkat cells
# Sequence (O60674 whole entry): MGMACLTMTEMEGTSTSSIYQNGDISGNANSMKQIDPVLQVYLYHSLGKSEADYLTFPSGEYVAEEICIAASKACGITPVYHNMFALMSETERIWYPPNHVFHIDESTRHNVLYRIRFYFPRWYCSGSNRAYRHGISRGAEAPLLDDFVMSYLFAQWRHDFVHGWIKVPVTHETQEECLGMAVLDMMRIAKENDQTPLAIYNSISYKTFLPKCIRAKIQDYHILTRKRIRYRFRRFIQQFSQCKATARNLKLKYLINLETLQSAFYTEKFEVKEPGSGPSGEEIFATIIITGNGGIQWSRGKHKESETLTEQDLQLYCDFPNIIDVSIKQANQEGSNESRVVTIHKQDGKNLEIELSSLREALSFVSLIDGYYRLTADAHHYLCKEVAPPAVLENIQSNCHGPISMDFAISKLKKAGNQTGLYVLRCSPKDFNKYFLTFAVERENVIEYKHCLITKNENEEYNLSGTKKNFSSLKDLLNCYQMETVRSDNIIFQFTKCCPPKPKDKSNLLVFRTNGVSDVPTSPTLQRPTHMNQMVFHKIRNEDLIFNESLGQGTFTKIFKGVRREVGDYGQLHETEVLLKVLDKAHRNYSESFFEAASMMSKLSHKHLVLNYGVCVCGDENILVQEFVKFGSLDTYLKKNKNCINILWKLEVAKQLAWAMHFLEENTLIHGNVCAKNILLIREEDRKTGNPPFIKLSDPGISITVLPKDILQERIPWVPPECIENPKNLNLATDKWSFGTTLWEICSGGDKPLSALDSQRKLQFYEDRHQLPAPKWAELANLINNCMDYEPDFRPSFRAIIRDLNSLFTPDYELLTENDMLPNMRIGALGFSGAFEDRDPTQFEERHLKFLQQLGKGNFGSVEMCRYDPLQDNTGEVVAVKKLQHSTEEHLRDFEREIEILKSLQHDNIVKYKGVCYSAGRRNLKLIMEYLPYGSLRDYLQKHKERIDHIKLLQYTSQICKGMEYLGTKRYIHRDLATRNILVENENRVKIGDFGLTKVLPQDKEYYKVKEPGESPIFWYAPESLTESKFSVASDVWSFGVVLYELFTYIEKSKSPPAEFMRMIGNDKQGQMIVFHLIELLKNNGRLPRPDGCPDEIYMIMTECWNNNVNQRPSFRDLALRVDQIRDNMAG
# experimental.details: Degradation-inducing effect on JAK in Jurkat cells (chemiluminescent Western blotting), JAK2
# Assay type: cell-based
# reported.conditions: 1 μmol/L, 6 hours, corrected by GAPDH, DMSO as 100%
For each entry below, report its JAK protein ratio of Jurkat cells after treatment of each test compound: JAK2 value.
Answers are plain numbers, in %.

Below, 6 compounds whose answers are already recorded.
CNC(=O)c1cnc(Nc2ccc(C(=O)NCCCCCCCCC(=O)N[C@H](C(=O)N3C[C@H](O)C[C@H]3C(=O)NCc3ccc(-c4scnc4C)cc3)C(C)(C)C)cn2)cc1Nc1cccc(C(=O)NC)c1OC [Example 4]
158.8
CNC(=O)c1cnc(Nc2ccc(C(=O)NCCCCCCCC(=O)N[C@H](C(=O)N3C[C@H](O)C[C@H]3C(=O)NCc3ccc(-c4scnc4C)cc3)C(C)(C)C)cn2)cc1Nc1cccc(C(=O)NC)c1OC [Example 3]
117.6
CNC(=O)c1cnc(Nc2ccc(C(=O)NCCCCCCCCCC(=O)N[C@H](C(=O)N3C[C@H](O)C[C@H]3C(=O)NCc3ccc(-c4scnc4C)cc3)C(C)(C)C)cn2)cc1Nc1cccc(C(=O)NCCO)c1OC [Example 11]
132.2
CNC(=O)c1cnc(Nc2ccc(C(=O)NCCCCCCCCCC(=O)N[C@H](C(=O)N3C[C@@H](O)C[C@H]3C(=O)NCc3ccc(-c4scnc4C)cc3)C(C)(C)C)cn2)cc1Nc1cccc(C(=O)NC)c1OC [Example 8]
122.5
CNC(=O)c1cnc(Nc2ccc(C(=O)NCCCCCCCCCC(=O)N[C@H](C(=O)N3C[C@H](O)C[C@H]3C(=O)NCc3ccc(-c4scnc4C)cc3)C(C)(C)C)cn2)cc1Nc1cccc(C(=O)NC)c1OC [Example 5]
121.0
CNC(=O)c1cnc(Nc2ccc(F)cn2)cc1Nc1cccc(C(=O)NCCCCCCCCCC(=O)N[C@H](C(=O)N2C[C@H](O)C[C@H]2C(=O)NCc2ccc(-c3scnc3C)cc2)C(C)(C)C)c1OC [Comparative Example 1, reference compound]
87.6

Hey, quick one: what's JAK protein ratio of Jurkat cells after treatment of each test compound: JAK2 for each of these?
1. CNC(=O)c1cnc(Nc2ccc(C(=O)NCCCCCCCCCCCC(=O)N[C@H](C(=O)N3C[C@H](O)C[C@H]3C(=O)NCc3ccc(-c4scnc4C)cc3)C(C)(C)C)cn2)cc1Nc1cccc(C(=O)NC)c1OC [Example 7]
2. CNC(=O)c1cnc(Nc2ccc(F)cn2)cc1Nc1cccc(C(=O)OCCCCCCCCCC(=O)N[C@H](C(=O)N2C[C@H](O)C[C@H]2C(=O)NCc2ccc(-c3scnc3C)cc2)C(C)(C)C)c1OC [Comparative Example 2, reference compound]
3. CNC(=O)c1cccc(Nc2cc(Nc3ccc(C(=O)NCCCCCCCCCC(=O)N[C@H](C(=O)N4C[C@H](O)C[C@H]4C(=O)NCc4ccc(-c5scnc5C)cc4)C(C)(C)C)cn3)ncc2C(N)=O)c1OC [Example 9]

[108.2, 101.7, 115.9]

* * *

Assignment: determine reported JAK protein ratio of Jurkat cells after treatment of each test compound: JAK1 for the given molecules.
# target.entity: JAK1 (Homo sapiens, UniProt P23458)
# Construct: endogenous in cells; host or cells: Jurkat cells
# Sequence (P23458 whole entry): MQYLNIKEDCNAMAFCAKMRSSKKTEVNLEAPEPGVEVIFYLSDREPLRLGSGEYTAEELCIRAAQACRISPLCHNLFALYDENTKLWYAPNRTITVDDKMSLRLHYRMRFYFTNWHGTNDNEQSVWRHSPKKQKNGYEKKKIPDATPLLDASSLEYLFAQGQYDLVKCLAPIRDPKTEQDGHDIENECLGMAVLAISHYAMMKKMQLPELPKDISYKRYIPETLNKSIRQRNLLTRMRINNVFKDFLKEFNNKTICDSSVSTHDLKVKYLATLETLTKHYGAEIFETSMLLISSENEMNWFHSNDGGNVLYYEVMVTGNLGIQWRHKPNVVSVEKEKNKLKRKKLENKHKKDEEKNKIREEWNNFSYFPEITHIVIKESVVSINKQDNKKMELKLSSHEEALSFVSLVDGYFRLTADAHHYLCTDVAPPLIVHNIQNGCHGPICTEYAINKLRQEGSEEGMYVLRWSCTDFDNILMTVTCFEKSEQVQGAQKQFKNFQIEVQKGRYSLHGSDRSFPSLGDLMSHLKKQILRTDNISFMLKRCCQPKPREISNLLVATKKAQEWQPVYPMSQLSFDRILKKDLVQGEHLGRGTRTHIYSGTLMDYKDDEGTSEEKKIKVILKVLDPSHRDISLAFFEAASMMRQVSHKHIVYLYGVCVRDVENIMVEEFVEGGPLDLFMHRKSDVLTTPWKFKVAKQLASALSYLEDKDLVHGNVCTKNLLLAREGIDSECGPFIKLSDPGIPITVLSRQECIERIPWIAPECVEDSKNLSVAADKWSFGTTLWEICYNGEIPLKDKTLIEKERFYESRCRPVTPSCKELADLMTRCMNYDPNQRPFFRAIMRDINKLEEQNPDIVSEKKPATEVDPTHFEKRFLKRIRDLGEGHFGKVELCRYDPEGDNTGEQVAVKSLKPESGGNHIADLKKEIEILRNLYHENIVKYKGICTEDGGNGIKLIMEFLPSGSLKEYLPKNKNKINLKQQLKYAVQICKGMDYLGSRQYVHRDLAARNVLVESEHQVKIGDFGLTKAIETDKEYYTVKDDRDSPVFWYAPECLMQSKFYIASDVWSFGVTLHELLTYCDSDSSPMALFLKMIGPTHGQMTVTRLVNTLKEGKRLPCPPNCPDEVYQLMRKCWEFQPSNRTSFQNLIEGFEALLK
# experimental.details: Degradation-inducing effect on JAK in Jurkat cells (chemiluminescent Western blotting), JAK1
# Assay type: cell-based
# reported.conditions: 1 μmol/L, 6 hours, corrected by GAPDH, DMSO as 100%
Numbers only, in %.

Some solved cases for reference:
CNC(=O)c1cnc(Nc2ccc(C(=O)NCCCCCC(=O)N[C@H](C(=O)N3C[C@H](O)C[C@H]3C(=O)NCc3ccc(-c4scnc4C)cc3)C(C)(C)C)cn2)cc1Nc1cccc(C(=O)NC)c1OC
139.2
CNC(=O)c1cnc(Nc2ccc(C(=O)NCCCCCCCCCC(=O)N[C@H](C(=O)N3C[C@H](O)C[C@H]3C(=O)NCc3ccc(-c4scnc4C)cc3)C(C)(C)C)cn2)cc1Nc1cccc(C(=O)NC)c1OC
122.8

Next, consider the following molecule.
Which JAK protein ratio of Jurkat cells after treatment of each test compound: JAK1 value belongs to CNC(=O)c1cnc(Nc2ccc(C(=O)NCCCCCCCC(=O)N[C@H](C(=O)N3C[C@H](O)C[C@H]3C(=O)NCc3ccc(-c4scnc4C)cc3)C(C)(C)C)cn2)cc1Nc1cccc(C(=O)NC)c1OC ?
118.2

* * *

Task for the reader: assign each of the following molecules its reported JAK protein ratio of Jurkat cells after treatment of each test compound: JAK1.
# target.entity: JAK1 (Homo sapiens)
# Construct: endogenous in cells; host or cells: Jurkat cells
# experimental.details: Degradation-inducing effect on JAK in Jurkat cells (chemiluminescent Western blotting), JAK1
# Assay type: cell-based
# reported.conditions: 1 μmol/L, 6 hours, corrected by GAPDH, DMSO as 100%
Give bare numbers, in %.

CNC(=O)c1cnc(Nc2ccc(C(=O)NCCCCCCCCC(=O)N[C@H](C(=O)N3C[C@H](O)C[C@H]3C(=O)NCc3ccc(-c4scnc4C)cc3)C(C)(C)C)cn2)cc1Nc1cccc(C(=O)NC)c1OC
129.1
CNC(=O)c1cnc(Nc2ccc(C(=O)NCCCCCCCCCC(=O)N[C@H](C(=O)N3C[C@H](O)C[C@H]3C(=O)NCc3ccc(-c4scnc4C)cc3)C(C)(C)C)cn2)cc1Nc1cccc(-c2ncn(C)n2)c1OC
90.5
CNC(=O)c1cnc(Nc2ccc(C(=O)NCCCCCCCCCCC(=O)N[C@H](C(=O)N3C[C@H](O)C[C@H]3C(=O)NCc3ccc(-c4scnc4C)cc3)C(C)(C)C)cn2)cc1Nc1cccc(C(=O)NC)c1OC
113.2
CNC(=O)c1cnc(Nc2ccc(C(=O)NCCCCCCCCCC(=O)N[C@H](C(=O)N3C[C@@H](O)C[C@H]3C(=O)NCc3ccc(-c4scnc4C)cc3)C(C)(C)C)cn2)cc1Nc1cccc(C(=O)NC)c1OC
102.6
CNC(=O)c1cnc(Nc2ccc(C(=O)NCCCC(=O)N[C@H](C(=O)N3C[C@H](O)C[C@H]3C(=O)NCc3ccc(-c4scnc4C)cc3)C(C)(C)C)cn2)cc1Nc1cccc(C(=O)NC)c1OC
111.9

# query: JAK protein ratio of Jurkat cells after treatment of each test compound: JAK1 | item CNC(=O)c1cnc(Nc2ccc(F)cn2)cc1Nc1cccc(C(=O)OCCCCCCCCCC(=O)N[C@H](C(=O)N2C[C@H](O)C[C@H]2C(=O)NCc2ccc(-c3scnc3C)cc2)C(C)(C)C)c1OC [Comparative Example 2, reference compound] | system: JAK1 (Homo sapiens)
108.7

* * *

I'd be grateful if you could share measured JAK protein ratio of Jurkat cells after treatment of each test compound: JAK2 for these entries.
# target.entity: JAK2 (Homo sapiens)
# Construct: endogenous in cells; host or cells: Jurkat cells
# experimental.details: Degradation-inducing effect on JAK in Jurkat cells (chemiluminescent Western blotting), JAK2
# Type: cell-based
# reported.conditions: 1 μmol/L, 6 hours, corrected by GAPDH, DMSO as 100%
# do not omit the unit; it follows the number

Answered examples (2):
CNC(=O)c1cnc(Nc2ccc(C(=O)NCCCCCCCCCCC(=O)N[C@H](C(=O)N3C[C@H](O)C[C@H]3C(=O)NCc3ccc(-c4scnc4C)cc3)C(C)(C)C)cn2)cc1Nc1cccc(C(=O)NC)c1OC [Example 6]
139.8%
CNC(=O)c1cnc(Nc2ccc(C(=O)NCCCC(=O)N[C@H](C(=O)N3C[C@H](O)C[C@H]3C(=O)NCc3ccc(-c4scnc4C)cc3)C(C)(C)C)cn2)cc1Nc1cccc(C(=O)NC)c1OC [Example 1]
121.3%

Parameter requested: JAK protein ratio of Jurkat cells after treatment of each test compound: JAK2. Apply to each item below.
1. CNC(=O)c1cnc(Nc2ccc(C(=O)NCCCCCC(=O)N[C@H](C(=O)N3C[C@H](O)C[C@H]3C(=O)NCc3ccc(-c4scnc4C)cc3)C(C)(C)C)cn2)cc1Nc1cccc(C(=O)NC)c1OC [Example 2]
2. CNC(=O)c1cnc(Nc2ccc(C(=O)NCCCCCCCCCC(=O)N[C@H](C(=O)N3C[C@H](O)C[C@H]3C(=O)NCc3ccc(-c4scnc4C)cc3)C(C)(C)C)cn2)cc1Nc1cccc(-c2ncn(C)n2)c1OC [Example 10]

["112.6%", "114.1%"]
